For each of the molecules below, state its viability at 48 h, 10 µM.
- METHOD_DESCRIPTION: in vitro
- Parameters: species or system HB2, HEK293
- CONDITION_INFO: human, ccd841 cells
Numeric only. Scale: %

viability at 48 h, 10 µM measured on `C=CC(=O)Nc1ccccc1OC` = 105

Measured viability at 48 h, 10 µM, C=CC(=O)N1CC2CC3CC2C1C3OC (centres unmarked) : 118

The recorded viability at 48 h, 10 µM for C=CC(=O)N1CCCC(NS(C)(=O)=O)C1 (centres unmarked) is 112

Sure, the documented viability at 48 h, 10 µM for `O=C(CCl)NNC(=O)C1CCC1` is 30.9

Per the record, `CC(=O)c1cccc(NC(=O)CCl)c1` has viability at 48 h, 10 µM of 11

Entry under test: O=C(CCl)NC(=O)C1COc2ccccc2O1 (centres unmarked) . Its viability at 48 h, 10 µM was 102

Lab note: measured viability at 48 h, 10 µM of `C=CC(=O)N1CCOc2ccccc21` was 86.1

So, `Cc1ccc(NC(=O)NC(=O)CCl)cc1C` ? Its viability at 48 h, 10 µM was 63.5

Lab note: measured viability at 48 h, 10 µM of C=CC(=O)NC1CCCN(c2cc(C)nn2C)C1=O (centres unmarked) was 113

Reported viability at 48 h, 10 µM ( `C=CC(=O)N1CCN(c2ccnc(-c3ccccc3)n2)CC1` ) = 105

Given item `O=C(CCl)Nc1ccccc1N1CCCCC1` , the value recorded as its viability at 48 h, 10 µM is 109

For this molecule ( `O=C(CCl)NCC12CC3CC(CC(C3)C1)C2` ), measured viability at 48 h, 10 µM is 76.1

Per the records, this molecule ( `O=C(CCl)N1CC=C(c2c[nH]c3ccccc23)CC1` ) has viability at 48 h, 10 µM equal to 77.7

# viability at 48 h, 10 µM (molecule: `Cl.O=C(CCl)N1CCN(c2ccc(O)cc2)CC1` ) is 76.7

Field viability at 48 h, 10 µM (entry `CC(=O)c1cc2c(cc1NC(=O)CCl)OCO2` ) reads 86

`C=CC(=O)N1CCC(C(=O)[O-])CC1.[Na+]` has a reported viability at 48 h, 10 µM of 125

For reference, reported viability at 48 h, 10 µM for `NS(=O)(=O)c1ccc(NC(=O)CCl)cc1` stands at 56.9

For record O=C(CCl)N1CCCC2CCCCC21 (centres unmarked) the listed viability at 48 h, 10 µM is 32.5

For `CN(C(=O)CCl)c1nccs1` the molecule record lists viability at 48 h, 10 µM as 118

Briefly, viability at 48 h, 10 µM measured for `C=CC(=O)N1CCn2c(cc3cc(Cl)ccc32)C1` : 109

What the record says about `O=C(CCl)Nc1nc(-c2ccc(F)cc2)cs1` : viability at 48 h, 10 µM is 63.1

For record `Cc1nc(-c2cccc(NC(=O)CCl)c2)cs1` the listed viability at 48 h, 10 µM is 29.7

molecule `Cc1ccc(Cl)cc1NC(=O)CCl` , viability at 48 h, 10 µM observed: 44.6

---

Please provide measured NNMT for the entries that follow.
- TEST_TARGET: NNMT (hNNMT) (Homo sapiens, UniProt P40261)
- Construct: wild type, N-terminal His6 tag kept (no cleavage described), E. coli, construct 31248 Da
- Sequence (P40261 whole entry): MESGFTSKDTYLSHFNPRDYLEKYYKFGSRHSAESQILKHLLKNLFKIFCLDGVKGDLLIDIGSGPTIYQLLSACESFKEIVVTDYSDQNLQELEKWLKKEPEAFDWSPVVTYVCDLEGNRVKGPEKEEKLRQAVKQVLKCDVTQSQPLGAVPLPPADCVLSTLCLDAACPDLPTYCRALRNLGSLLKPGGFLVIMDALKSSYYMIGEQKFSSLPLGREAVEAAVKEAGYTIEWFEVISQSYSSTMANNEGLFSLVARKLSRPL
- Set-up: Intact protein LC/MS covalent labelling, fragments in pools of five, 200 uM each, 4 °C
- CONDITION_INFO: 24 h, 4 °C, pool of five; 200 µM; covalent
// keep it numeric: no unit symbol after the value

Lookup result for `O=C(CCl)NC(=O)NCc1cccs1` ; measured NNMT: 0.55

NNMT in this record for `O=C(CCl)N1CCN(S(=O)(=O)c2ccccc2F)CC1` : 0

Record `Cc1ccc(NC(=O)NC(=O)CCl)cc1C` , field NNMT: 0.57

NNMT recorded for this compound, C=CC(=O)NC1CCN(c2ccccc2C(F)(F)F)C1 (centres unmarked) , is 0

The compound identified as `O=C(CCl)NC1CCN(C(=O)C2CCCCC2)CC1` registered its NNMT at 0

For reference, reported NNMT for `O=C(CCl)Nc1cccc(Cl)c1N1CCOCC1` stands at 0.62

So, `O=C(CCl)N=c1sccn1Cc1cccc2ccccc12` ? Its NNMT was 0

Documented NNMT of `CN(Cc1cccc(F)c1)C(=O)CCl` : 0

CC(NC(=O)NC(=O)CCl)C1CC2CCC1C2 (centres unmarked) yielded NNMT of 0.23

Lab note: C=CC(=O)N1CCCC(Cc2nnc3ccccn23)C1 (centres unmarked) gave NNMT of 0

Kindly note the recorded NNMT for `COC(=O)C1CCN(C(=O)CCl)CC1` , which is 0

Measured NNMT of `Cl.O=C(CCl)NCc1ccccn1` : 0

What the record says about `Cc1ccc(NC(=O)CCl)c(F)c1` : NNMT is 0.23

Please fill in: NNMT reported for `Cc1cccc(C(=O)NNC(=O)CCl)c1` = 0

Consider `C=CC(=O)N1CCN(C(=O)Nc2ccc(C)c(Cl)c2)CC1` . Its measured NNMT is 0

Form: compound = `O=C(Nc1ccccc1O)C1CCN(C(=O)CCl)CC1` ; NNMT = 0

Just so you know, measured NNMT for `O=C(CCl)Nc1ccc(F)cc1` came out at 0

Per the record, `N#CSc1ccc(NC(=O)CCl)c(Cl)c1` has NNMT of 0.38

Record C=CC(=O)N1CC(c2ccccc2)C2COCCC21 (centres unmarked) . Reported NNMT: 0

Short answer for `Cc1cccc(CN2CCN(C(=O)CCl)CC2)c1` : NNMT was 0.26

Short answer for `C=CC(=O)Nc1ccc(N2CCCC2=O)cc1` : NNMT was 0.14

get_value(item= `N#Cc1cccc(CNC(=O)CCl)c1` , readout=NNMT) returns 0

Form: compound = `O=C(CCl)Nc1ccccc1Cl` ; NNMT = 0

---

Kindly state NUDT7 for each of the entries shown.
- TEST_TARGET: NUDT7 (Homo sapiens, UniProt P0C024)
- Construct: residues 14-235, E. coli, pNIC28-Bsa4, N-terminal His6 tag removed by TEV, construct 26672 Da
- Sequence (P0C024 14-235): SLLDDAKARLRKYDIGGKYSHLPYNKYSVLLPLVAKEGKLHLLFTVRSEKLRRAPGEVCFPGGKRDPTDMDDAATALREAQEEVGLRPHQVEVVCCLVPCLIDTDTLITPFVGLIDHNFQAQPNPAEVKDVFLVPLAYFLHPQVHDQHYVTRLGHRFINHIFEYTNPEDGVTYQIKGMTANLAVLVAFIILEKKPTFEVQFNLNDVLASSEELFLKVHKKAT
- Design: Intact protein LC/MS covalent labelling, fragments in pools of five, 200 uM each, 4 °C
- CONDITION_INFO: 24 h, 4 °C, pool of five; 200 µM; covalent
Respond using a number only.

Entry `COC(=O)c1c(NC(=O)CCl)sc2c1CCC2` : NUDT7 on NUDT7 (Homo sapiens, UniProt P0C024) = 0.14

Item: `Cc1cc(NC(=O)CCl)on1` | System: NUDT7 (Homo sapiens, UniProt P0C024) | NUDT7: 0

Param item: O=C(CCl)N1CCCC2CCCCC21 (stereo not drawn) ; param system: NUDT7 (Homo sapiens, UniProt P0C024); output NUDT7: 0.07

Query `O=C(CCl)Nc1cccc(C(=O)O)c1` on NUDT7 (Homo sapiens, UniProt P0C024); NUDT7 returned: 0

Record `CS(C)(=O)=NC(=O)CCl` has NUDT7 (Homo sapiens, UniProt P0C024) NUDT7 equal to 0

Record for `C=CC(=O)N1CCC(c2nc(C(F)(F)F)cs2)CC1` under target or system NUDT7 (Homo sapiens, UniProt P0C024): NUDT7 reported as 0

---

- METHOD_DESCRIPTION: in vitro
- Set-up: species or system CCD841, HEK293
- CONDITION_INFO: human, hb2 cells, read-out: HB-2 Cells Viability (%)
# note: boundary value 90% maps to -1; viability at 48 h, 10 µM below it maps to 1

Quick check: viability at 48 h, 10 µM of Cc1nc(-c2ccc3c(c2)CCN3C(=O)CCl)cs1 [PCM-0102901] under 90%?
1

Would you kindly verify if viability at 48 h, 10 µM of COc1cc(=O)[nH]c(NC(=O)CCl)n1 [PCM-0102873] is strictly less than 90%?
-1

API: query returns whether the compound falls strictly under 90% in viability at 48 h, 10 µM. Query: CC1CCCCC1NC(=O)NC(=O)CCl (centres unmarked) [PCM-0102292]
1

Please indicate whether the reported viability at 48 h, 10 µM of O=C(CCl)NNc1ccccn1 [PCM-0102319] is strictly below 90%.
-1

Please state whether viability at 48 h, 10 µM is below 90% for O=C(CCl)Nc1ccc(C(=O)O)cc1 [PCM-0102400]
1

In plain terms, does CCN(C(=O)CCl)C1=CCCCC1 [PCM-0103084] come in under 90% for viability at 48 h, 10 µM?
-1

Quick check: does O=C(CCl)NC1CCCCCCC1 [PCM-0102318] have viability at 48 h, 10 µM under 90%?
1

API: query returns whether the compound falls strictly under 90% in viability at 48 h, 10 µM. Query: C=CC(=O)Nc1cc(F)cc(F)c1 [PCM-0103039]
1

# strict comparison: is reported viability at 48 h, 10 µM < 90%? input = O=C(CCl)N1CCN(S(=O)(=O)c2ccc(Cl)cc2)CC1 [PCM-0102704]
1

Report whether reported viability at 48 h, 10 µM is lower than 90% (strictly) for O=C(CCl)NC(=O)c1cccc2ccccc12 [PCM-0102694]
-1

Input O=C(CCl)Nc1ccc(F)cc1 [PCM-0103002] ; condition: viability at 48 h, 10 µM strictly below 90%. Does it hold?
1

These data points were gathered from paper PMC6556873.
